Listing: Ratio IC50 of selected compounds
Assay: Resistance index, ratio of IC50 for antimalarial activity against asexual blood stage multi drug-resistant Plasmodium falciparum K1 to IC50 for antimalarial activity against asexual blood stage drug-sensitive Plasmodium falciparum NF54
Format: functional
The reply should be a number, written without any unit.

>>> print(df.to_string())
                           structure_string  measurement_label  test_value
0  CC(C)(C)NCc1cc(C(C)(C)C)cc(Nc2nc3cc(F)c(F)cc3[nH]2)c1O         Ratio IC50        1.87
1  CCN(CC)Cc1ccc(C)c(Nc2nc3ccccc3n2Cc2ccc(C#N)cc2)c1O         Ratio IC50        0.95
2  CCN(CC)Cc1ccc(Nc2nc3ccccc3n2Cc2ccc(C(F)(F)F)cc2)cc1O         Ratio IC50        1.85
3      CCNCc1cc(Cl)cc(Nc2nc3ccccc3[nH]2)c1O         Ratio IC50        2.93

We now examine a further compound.
Sure, the documented Ratio IC50 for CCN(CC)Cc1cc(F)cc(Nc2nc3ccccc3n2Cc2ccc(C(F)(F)F)cc2)c1O is 1.12
